Known tissue uptake at 120 h of a selection of molecules
Experiment: Biodistribution of 177Lu-labeled αMSH analogues in mice bearing SK-MEL-1 human melanoma
Details: male, NRG (NOD.Cg-Rag1tm1Mom Il2rgtm1Wjl/SzJ), mouse, muscle, total radioactivity
Dear colleague, please return just the value in %ID/g, with no unit written.

>  <Molecule>
CCCC[C@H](NC(=O)CN1CCC(NC(=O)[C@H](CCCCNC(=O)CN2CCN(CC(=O)O)CCN(CC(=O)O)CCN(CC(=O)O)CC2)NC(=O)CNC(=O)CCCc2ccc(I)cc2)CC1)C(=O)N[C@H]1CC(=O)NCCCC[C@@H](C(N)=O)N(C)C(=O)[C@H](Cc2c[nH]c3ccccc23)NC(=O)[C@H](CCCNC(=N)N)N(C)C(=O)[C@@H](Cc2ccccc2)NC(=O)[C@H](Cc2c[nH]cn2)NC1=O [^177Lu-labeled CCZ01148, metal not drawn]

>  <tissue uptake at 120 h / %ID/g>
0.31

$$$$

Exercise: If you can, please state the reported tissue uptake at 120 h value of CCCC[C@H](NC(=O)CN1CCC(NC(=O)[C@H](CCCCNC(=O)CN2CCN(CC(=O)O)CCN(CC(=O)O)CCN(CC(=O)O)CC2)NC(=O)CNC(=O)CCCc2ccc(-c3ccc(C)cc3)cc2)CC1)C(=O)N[C@H]1CC(=O)NCCCC[C@@H](C(N)=O)N(C)C(=O)[C@H](Cc2c[nH]c3ccccc23)NC(=O)[C@H](CCCNC(=N)N)N(C)C(=O)[C@@H](Cc2ccccc2)NC(=O)[C@H](Cc2c[nH]cn2)NC1=O [^177Lu-labeled CCZ01158, metal not drawn] .
Solution: 0.05

Exercise: What does the data say about its tissue uptake at 120 h? Entry: CCCC[C@H](NC(=O)CN1CCC(NC(=O)[C@H](CCCCNC(=O)CN2CCN(CC(=O)O)CCN(CC(=O)O)CCN(CC(=O)O)CC2)NC(=O)[C@H](CCC(=O)O)NC(=O)CCCc2ccc(I)cc2)CC1)C(=O)N[C@H]1CC(=O)NCCCC[C@@H](C(N)=O)N(C)C(=O)[C@H](Cc2c[nH]c3ccccc23)NC(=O)[C@H](CCCNC(=N)N)N(C)C(=O)[C@@H](Cc2ccccc2)NC(=O)[C@H](Cc2c[nH]cn2)NC1=O [^177Lu-labeled CCZ01118, metal not drawn]
Solution: 0.02
